tested on: OVCAR-3; test: NCI tumour cell line growth inhibition, 48 h
Active and inactive are the calls of the source. Cut-off read from the data, not from the text of the source: active = GI50 up to about 1.1 µM and inactive = higher.
Attribute measured: GI50

These recorded examples may help you get a feel for the data.
CCCCCCCCCCCC[N+](CCCCCCCCCCCC)=C1SCCS1	7.76 µM (inactive)
O=C(NC/C=C/Br)NC1CCNc2ccccc21 (configuration not stated)	47.2 µM (inactive)
CC1=NN(C(=O)CC(=O)Nc2ccccc2C)C(=O)C1/N=N/c1ccc(C(=O)O)cc1 (configuration not stated)	> 100 µM (inactive)
CN(C)Cc1cc(/N=N/c2ccccc2Cl)ccc1O	18 µM (inactive)
CC(=O)N1CC[N+](C)(CCCCN2c3ccccc3Sc3cc(N=[N+]=[N-])ccc32)CC1	> 100 µM (inactive)
OC(c1ccccc1)c1c(-c2ccccc2)[nH]c(-c2ccccc2)c1C(O)c1ccccc1 (configuration not stated)	2.5 µM (inactive)

Could you now look at the following compound, please?
Task: Fill in: GI50 on OVCAR-3, entry `O=C(O)Cc1c[nH]c2ccc(F)cc12`
Output: > 100 µM (inactive)
